system: Mus musculus; test: Anticonvulsant activity in ip dosed Albino Swiss CD-1 mouse assessed as dose required to protect against 50 Hz current-induced seizure; type: functional; settings: Swiss CD-1, ip

{"columns": ["SMILES STRING", "UNITS TEXT", "ED50"],
 "data": [
  ["COc1ccccc1N1CCN(CCOCCOc2c(C)cc(C)cc2C)CC1.Cl.Cl", "mg/kg", 26.3],
  ["Cc1cc(C)c(OCCOCCN2CCN(CCc3ccccc3)CC2)c(C)c1.Cl.Cl", "mg/kg", 18],
  ["Cc1cc(C)c(C)c(OCCOCCN2CCN(CCO)CC2)c1.Cl.Cl", "mg/kg", 24.4],
  ["Cc1cc(C)c(OCCN2CCN(CCOCCO)CC2)c(C)c1.Cl.Cl", "mg/kg", 45.4],
  ["Cc1cccc(OCCOCCN2CCN(CCc3ccccc3)CC2)c1C.Cl.Cl", "mg/kg", 22.2],
  ["COc1ccc(N2CCN(CCCOc3c(C)cc(C)cc3C)CC2)cc1.Cl.Cl", "mg/kg", 23.5]
]}

Provenance of the data: ChEMBL document CHEMBL4190389
